Answer each item with its documented phosphorylation enrichment.
# tgt: Fyn (UniProt P06241)
# Sequence (P06241 whole entry, looked up): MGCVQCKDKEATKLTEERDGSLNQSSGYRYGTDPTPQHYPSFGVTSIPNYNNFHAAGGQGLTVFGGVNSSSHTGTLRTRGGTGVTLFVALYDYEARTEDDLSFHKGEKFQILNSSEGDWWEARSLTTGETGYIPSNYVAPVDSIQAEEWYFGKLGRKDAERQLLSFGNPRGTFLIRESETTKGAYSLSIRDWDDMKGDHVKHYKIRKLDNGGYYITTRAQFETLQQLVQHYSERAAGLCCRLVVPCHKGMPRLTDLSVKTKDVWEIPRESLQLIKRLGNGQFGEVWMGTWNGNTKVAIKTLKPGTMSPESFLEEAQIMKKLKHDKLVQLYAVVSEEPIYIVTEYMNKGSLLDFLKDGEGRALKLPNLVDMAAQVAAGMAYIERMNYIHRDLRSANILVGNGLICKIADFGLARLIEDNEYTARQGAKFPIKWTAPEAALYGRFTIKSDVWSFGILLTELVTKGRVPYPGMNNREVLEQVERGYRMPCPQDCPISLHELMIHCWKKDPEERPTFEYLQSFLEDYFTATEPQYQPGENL
# test-summary: phosphorylation enrichment, bacterial display (enrichment ratio); higher = better substrate or ligand; peptides without Tyr show the background;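 note: 11-residue human phosphosite peptides and single-mutation variants displayed on the E. coli surface, counted by deep sequencing, each peptide's frequency after selection divided by its frequency in the unselected input library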;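 note: frequency after pTyr selection over input frequency; kinase dosed for 20-30% of maximal phosphorylation in three min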
Number, no unit, nothing else.

(Q) Tell me measured phosphorylation enrichment for SARFRYLMAEK [LDHB_Y173] please.
(A) 0.365

(Q) Complete the entry with phosphorylation enrichment for KVKPIYFRTQG [AR_Y916_H918R]
(A) 0.404

(Q) Using the record for EKKDIYKAGEQ [CFH_Y1008_V1007I] , state its measured phosphorylation enrichment.
(A) 0.341

(Q) Quickly give me recorded phosphorylation enrichment for RKEAQYMLENE [SLC16A6_Y224]
(A) 0.642

(Q) Output measured phosphorylation enrichment for this item: KVDKEYEVGVR [GHR_Y226_R229G]
(A) 0.401

(Q) Read off the recorded phosphorylation enrichment for LIQRNYKLAAQ [ALPK2_Y1975]
(A) 0.571

(Q) Find the measured phosphorylation enrichment of GGSTFYIDTNA [ACTL6A_Y69_P66S_YF] and report it.
(A) 0.4

(Q) Determine its reported phosphorylation enrichment: PGVNYYFQVSA
(A) 0.611

(Q) Name the recorded phosphorylation enrichment of the item RTTIHYNYMCN [TP53_Y234_C229R] in your answer.
(A) 1.16

(Q) Indicate the recorded phosphorylation enrichment value for this sequence: TCFDKYTGSTY [FN1_Y101_N104S]
(A) 0.469

(Q) Give the reported phosphorylation enrichment for this sequence. VFAADYFKLLG [ROR2_Y645_YF]
(A) 0.417

(Q) Read the entry QFLMKYVWSAS [ABCD1_Y337] and write its reported phosphorylation enrichment.
(A) 0.3

(Q) Specify measured phosphorylation enrichment for AAVDTYCRHNF [HLA-DRB1_Y107_YF] .
(A) 0.415

(Q) Please list phosphorylation enrichment recorded for the sequence DTLASYLDKVR [KRT12_Y139_R135T]
(A) 0.378

(Q) Give me measured phosphorylation enrichment, please, for this sequence: VTSLKYSTPPF [BRIP1_Y916_S919P_YF]
(A) 0.472

(Q) Please give measured phosphorylation enrichment of the following entry: SIGLGYHKDLQ [NF1_Y1169]
(A) 0.427

(Q) Name the recorded phosphorylation enrichment of the sequence listed here: SSYPDYLAAVD [GLB1_Y154_D151Y]
(A) 0.495

(Q) Retrieve phosphorylation enrichment measured for VFSIDYFRVGG [NTRK2_Y706_T704I_YF] and print it.
(A) 0.535

(Q) Let me know recorded phosphorylation enrichment for SSYSRYIMMPN [LEF1_Y114_G113R] , thanks.
(A) 0.542

(Q) Give me measured phosphorylation enrichment, please, for this sequence: VHKKGYNKLNQ [ZNF676_Y98_E96K]
(A) 0.403

(Q) For the sequence KVGNEYVTKGQ [MYH7_Y410] , report phosphorylation enrichment.
(A) 0.3

(Q) Indicate the recorded phosphorylation enrichment value for this sequence: ATHSGYRLNDY [CLDN14_Y233]
(A) 0.389

(Q) Consider the sequence SGLDSYVRSLP [TRAPPC1_Y133_R129G] . State its measured phosphorylation enrichment.
(A) 0.424

(Q) Determine from records and report phosphorylation enrichment for QKKPRYEIRWK [PDGFRB_Y562]
(A) 0.895

(Q) Specify reported phosphorylation enrichment for the sequence shown: HNELFYEEAEH [VANGL1_Y345_YF]
(A) 0.942

(Q) Using known records, supply phosphorylation enrichment for KRLAVYQAGAR [APOE_Y180]
(A) 0.405

(Q) Entry KPVEEYANCHL [TF_Y593] needs its phosphorylation enrichment filled in; supply it.
(A) 0.472

(Q) Supply recorded phosphorylation enrichment for LRYDVYGGENE [STOX1_Y610_E608D] here.
(A) 1.48

(Q) Specify measured phosphorylation enrichment for SSKILYHIIKG [CDH17_Y489] .
(A) 0.45

Cited source for all entries: the supplement of paper PMC10065799
